target: pooled human IgG (human IgG1,2,3 and 4)
RECORDED_ENDPOINT: Enzyme activity endpoint: scIgG (ng/µL)

PROTEIN	OBSERVED
PRT-676 (protein) MQITSVWTKGVTPPTMDQFTNYNYDVFHAPYKPGQGWYDITKTFDGKDNLLCGAATAGNMLHWWFDQNKEEIENYLKKHPEKQKIIFNNQKMFDLRKAINTKDSQTNSALFNYFKDKAFPNLSARQKGVMPDLVLDMFINGYYLNLGKTQSTDVNREYQTKDSRGGIFDDVFGRGDQTKLLTARHDLYNGGLNDISQLIKQELSSGKALGLSHTYANVRYSHVINLWGADFDEEGNLEAIYVTDSDDDASIGMKKYYVGKNASGKVAISAKKIEGENIGAQVLGLFTLSSGKEIWQKLSLEHHHHHH	118
